Every entry's value here was drawn from patent US20210255193A1.

Measured isoTOP-ABPP reactivity ratio at lysine P0CG30_K53 values are reported for all entries that follow.
Molecular target: GSTT2B Glutathione S-transferase theta-2B (Homo sapiens, UniProt P0CG30)
Construct: isoTOP-ABPP experiments performed in cell lysates (in vitro); endogenous in cells; host or cells: MDA-MB-231 soluble lysate
Sequence (P0CG30 1-244): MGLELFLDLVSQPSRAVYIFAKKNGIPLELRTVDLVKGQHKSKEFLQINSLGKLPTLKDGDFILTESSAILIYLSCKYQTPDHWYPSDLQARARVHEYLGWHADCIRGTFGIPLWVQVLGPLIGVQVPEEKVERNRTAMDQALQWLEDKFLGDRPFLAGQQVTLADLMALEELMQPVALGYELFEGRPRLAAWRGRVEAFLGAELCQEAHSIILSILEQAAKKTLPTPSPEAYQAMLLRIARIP
Assay: competitive isoTOP-ABPP
Format: binding
Conditions: 50 uM, 231 sol, in vitro
Attribute measured: isoTOP-ABPP reactivity ratio at lysine P0CG30_K53

Compound	Endpoint value
O=C(Oc1ccc([N+](=O)[O-])cc1[N+](=O)[O-])c1cc(C(F)(F)F)cc(C(F)(F)F)c1	0.8
CCn1cc(C(=O)Oc2c(F)c(F)c(F)c(F)c2F)c(=O)c2ccc(C)nc21	1.0
O=C(Oc1c(F)c(F)c(F)c(F)c1F)c1ccc2ccccc2n1	1.0
O=C(CCc1coc2cc(F)ccc2c1=O)Oc1c(F)c(F)c(F)c(F)c1F	1.3
O=C(Oc1ccc([N+](=O)[O-])cc1[N+](=O)[O-])C(c1ccccc1)c1ccccc1 [fragment 30, 2,4-Dinitrophenyl 2,2-diphenylacetate]	0.6
Cn1cc(CC(=O)Oc2ccc([N+](=O)[O-])cc2[N+](=O)[O-])c2ccccc21	0.8
